Each recorded value in this set is attributed to paper PMC8635108.

TEST METHOD NOTES: In vitro cytotoxicity assay (MTT)
Format: cell-based
STATED CONDITIONS: mouse, RAW 264.7 cells, 19 μg/ml, read-out: cell viability
METRIC: viability at 24 h, 19 μg/ml (%)

* Nc1c(S(=O)(=O)O)ccc2c1C(=O)c1ccccc1C2=O | 91.5

* * *

TEST METHOD NOTES: In vitro cytotoxicity assay (MTT)
Format: cell-based
STATED CONDITIONS: mouse, RAW 264.7 cells, 34 μg/ml, read-out: cell viability
METRIC: viability at 24 h, 34 μg/ml (%)

• Nc1c(-c2ccc(Cl)cc2)cnn1-c1ccc(C(=O)O)cc1 = 86.4

* * *

Tested on: S. paratyphi
METRIC: MIC (µg/mL)

• Nc1c(-c2ccc(Cl)cc2)cnn1-c1ccc(C(=O)O)cc1 = 22
• O=C(O)c1ccc(Cn2nnc3sc4c(c3c2=O)CCCC4)cc1 = 24.3
• Nc1c(S(=O)(=O)O)ccc2c1C(=O)c1ccccc1C2=O = 16.3
• COc1c(N2CCNC(C)C2)c(F)cc2c(=O)c(C(=O)O)cn(C3CC3)c12 (stereo not shown) [Gatifloxacin, reference compound] = 3

* * *

# S. typhi: MIC values follow
METRIC: MIC

- Nc1c(S(=O)(=O)O)ccc2c1C(=O)c1ccccc1C2=O: 31.6 µg/mL
- O=C(O)c1ccc(Cn2nnc3sc4c(c3c2=O)CCCC4)cc1: 12.3 µg/mL
- Nc1c(-c2ccc(Cl)cc2)cnn1-c1ccc(C(=O)O)cc1: 44 µg/mL
- COc1c(N2CCNC(C)C2)c(F)cc2c(=O)c(C(=O)O)cn(C3CC3)c12 (stereo not shown) [Gatifloxacin, reference compound]: 9.7 µg/mL

* * *

System: S. enteritidis
METRIC: MIC

- O=C(O)c1ccc(Cn2nnc3sc4c(c3c2=O)CCCC4)cc1 [Compound 5]: 31.6 µg/mL
- Nc1c(S(=O)(=O)O)ccc2c1C(=O)c1ccccc1C2=O [Compound 19]: 53.3 µg/mL
- COc1c(N2CCNC(C)C2)c(F)cc2c(=O)c(C(=O)O)cn(C3CC3)c12 (stereo not shown) [Gatifloxacin, reference compound]: 7.7 µg/mL
- Nc1c(-c2ccc(Cl)cc2)cnn1-c1ccc(C(=O)O)cc1 [Compound 32]: 22 µg/mL
